Study target: Tubulin (Bos taurus) (UniProt Q6B856+Q862L2+Q862F3)
Test summary: Inhibition of [3H]colchicin binding to bovine brain tubulin incubated at 50 uM and 30 degreeC for 10 mins in presence of GTP by scintillation spectroscopic method

Molecule	inhibition
COc1cc(/C=N\OC[C@@H]2C[C@H]2CCC(C)c2cccs2)cc(OC)c1OC (some centres not stated)	18%
C=CC[C@@H](CC/C(C)=C/C=C/CC/C=C\[C@@H]1COC(C(C)(C)C)=N1)OC	80%
C=CC[C@@H](CC/C(C)=C/C=C/CC/C=C\c1coc(C(C)(C)C)n1)OC	7%
COc1cc(/C=N\OC/C=C/C=C(\C)CCC(O)c2cccs2)cc(OC)c1OC (configuration not stated)	57%
COc1cc(/C=N\OC[C@H]2C[C@@H]2[C@@H]2C[C@]2(C)CCC(O)c2cccs2)cc(OC)c1OC (some centres not stated)	-1%
C=CC[C@@H](CC/C(C)=C/C=C/CC/C=C\[C@@H]1CSC(C(C)(C)C)=N1)OC	63%
C=CC[C@@H](CC/C(C)=C/C=C/CC/C=C\c1csc(C(C)(C)C)n1)OC	43%
